Hey, just so you know, these numbers are from patent US5985836A.

molecular target: A1PI (Homo sapiens, UniProt P01009); construct: Human plasma is currently the only approved source of therapeutic AlPI; experiment: A1PI purification from 5 mg hSA + 1 mg A1PI on peptide column, A1PI mass balance; assay type: binding; conditions: A1PI; 5 mg hSA + 1 mg A1PI, 20° C.; * Below detection limit
Sequence (P01009 25-418): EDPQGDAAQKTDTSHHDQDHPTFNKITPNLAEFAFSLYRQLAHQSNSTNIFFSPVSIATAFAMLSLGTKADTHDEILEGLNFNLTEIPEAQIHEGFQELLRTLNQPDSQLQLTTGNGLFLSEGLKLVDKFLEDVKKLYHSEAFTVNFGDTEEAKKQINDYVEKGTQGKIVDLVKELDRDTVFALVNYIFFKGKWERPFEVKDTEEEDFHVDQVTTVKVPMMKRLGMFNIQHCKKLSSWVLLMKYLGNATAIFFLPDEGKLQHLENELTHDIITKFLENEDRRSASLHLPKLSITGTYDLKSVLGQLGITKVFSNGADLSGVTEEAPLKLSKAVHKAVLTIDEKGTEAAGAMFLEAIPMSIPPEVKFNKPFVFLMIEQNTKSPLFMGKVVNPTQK
Ends that are not written are not given here.
parameterMeasured: Mass Protein per Eluate Fraction, Flow (mg)

| substance | Mass Protein per Eluate Fraction, Flow [mg] |
| --- | --- |
| VIWLVR | 0.08 |

[1] RFIYYT
[2] PYWIVR
[3] WKLWRW
[4] ARWYIH
[5] WIKWTK
query: # rank_down: sort by Mass Protein per Eluate Fraction, Flow, max first Respond with the label ranking, as requested.
result: 4, 1, 3, 2, 5

[a] IIWLYK
[b] YKFRFW
[c] RAFWYI
query: Let's sort these by Mass Protein per Eluate Fraction, Flow, smallest first. Go ahead? Respond with the label ranking, as requested.
result: c, a, b

[a] LIVHRW
[b] RYRIFI
query: Higher Mass Protein per Eluate Fraction, Flow: a or b ? Answer with the label corresponding to your selection.
result: a

###

target: A1PI (Homo sapiens); construct: Human plasma is currently the only approved source of therapeutic AlPI; assay: A1PI purification from 5 mg hSA + 1 mg A1PI on peptide column, A1PI mass balance; assay type: binding; details: A1PI; 5 mg hSA + 1 mg A1PI, 4° C.; * Below detection limit
Ends that are not written are not given here.
parameterMeasured: Mass Protein per Eluate Fraction, 2% Ac. Acid (mg)

Known Mass Protein per Eluate Fraction, 2% Ac. Acid results, listed for orientation:
| substance | obsValue |
| --- | --- |
| IIWLYK | 0.18 |
| RLWRYG | 0.11 |
| RFIYYT | 0.64 |

[1] RYRIFI
[2] LIVHRW
query: Higher Mass Protein per Eluate Fraction, 2% Ac. Acid: 1 or 2 ? Answer with the label corresponding to your selection.
result: 1
(1: 0.71 mg, 2: 0.24 mg)

[I] WKLWRW
[II] YKFRFW
query: Higher Mass Protein per Eluate Fraction, 2% Ac. Acid: I or II ? Answer with the label corresponding to your selection.
result: II
(II: 0.46 mg, I: 0.06 mg)

[a] RAFWYI
[b] VIWLVR
query: Compare Mass Protein per Eluate Fraction, 2% Ac. Acid: is it lower for a or for b ? Answer with the label corresponding to your selection.
result: b

###

target: A1PI (Homo sapiens, UniProt P01009); construct: Human plasma is currently the only approved source of therapeutic AlPI; test: A1PI binding on peptide-resin column, injection of 1 mg A1PI in equilibration buffer; details: VIFLVR point mutations; 1 mg A1PI, 4° C.
Ends that are not written are not given here.
parameterMeasured: % of Total A1PI Eluted by Fraction (Based on Absorbance at 280 nm), Flowthrough (%)

Known % of Total A1PI Eluted by Fraction (Based on Absorbance at 280 nm), Flowthrough results, listed for orientation:
| substance | obsValue |
| --- | --- |
| D I F L V R: point mutation of VIFLVR, position 1 (DIFLVR) | 84 |
| N I F L V R: point mutation of VIFLVR, position 1 (NIFLVR) | 0 |

[1] K I F L V R: point mutation of VIFLVR, position 1 (KIFLVR)
[2] Ac-V I F L V R: N-terminal acetylated sequence Ac-VIFLVR (listed under SEQ ID No:37) (not fully specified (C-terminus); printed as Ac-VIFLVR)
query: Higher % of Total A1PI Eluted by Fraction (Based on Absorbance at 280 nm), Flowthrough: 1 or 2 ? Answer with the label corresponding to your selection.
result: 2

###

biological target: A1PI (Homo sapiens); construct: Human plasma is currently the only approved source of therapeutic AlPI; experiment: A1PI binding on peptide-resin column, injection of 1 mg A1PI in equilibration buffer; conditions: Trp position mutations; 1 mg A1PI, 4° C.
Ends that are not written are not given here.
parameterMeasured: % of Total A1PI Eluted by Fraction (Based on Absorbance at 280 nm), Flowthrough (%)

Known % of Total A1PI Eluted by Fraction (Based on Absorbance at 280 nm), Flowthrough results, listed for orientation:
| substance | obsValue |
| --- | --- |
| V I R L V R: VIWLVR with Trp at position 3 replaced by Arg (VIRLVR) | 0 |
| V I V L V R: VIWLVR with Trp at position 3 replaced by Val (VIVLVR) | 0 |

[P] VIFLVR
[Q] V I D L V R: VIWLVR with Trp at position 3 replaced by Asp (VIDLVR)
query: Higher % of Total A1PI Eluted by Fraction (Based on Absorbance at 280 nm), Flowthrough: P or Q ? Answer with the label corresponding to your selection.
result: Q
(Q: 100%, P: 0%)

###

molecular target: A1PI (Homo sapiens, UniProt P01009); construct: Human plasma is currently the only approved source of therapeutic AlPI; assay: A1PI binding on peptide-resin column, injection of 1 mg A1PI in equilibration buffer; conditions: 1 mg A1PI in equilibration buffer, 4° C.
Ends that are not written are not given here.
parameterMeasured: Percent A1PI Eluted by Fraction Based on Absorbance at 280 nm, 2% Acetic Acid (%)

| substance | obsValue |
| --- | --- |
| VIWLVR | 30 |
| NWKRVR | 5 |

[1] IIe Lys Arg Tyr Tyr Leu (IKRYYL)
[2] PYWIVR
[3] IWRKYS
[4] IKRYYN
query: Let's sort these by Percent A1PI Eluted by Fraction Based on Absorbance at 280 nm, 2% Acetic Acid, smallest first. Go ahead? Respond with the label ranking, as requested.
result: 4, 1, 3, 2

###

target: A1PI (Homo sapiens, UniProt P01009); construct: Human plasma is currently the only approved source of therapeutic AlPI; assay: Purification of A1PI from Effluent II+III on peptide column, A1PI mass balance; format: binding; details: Table 11; A1PI; 1 ml Eff. II+III, 4° C.
Ends that are not written are not given here.
parameterMeasured: Percent Eluted by Fraction, Flowthrough (%)

Known Percent Eluted by Fraction, Flowthrough results, listed for orientation:
| substance | measurementUnits | obsValue |
| --- | --- | --- |
| V I L L V R: VIWLVR with Trp at position 3 replaced by Leu (VILLVR) | % | 41 |
| V I S L V R: VIWLVR with Trp at position 3 replaced by Ser (VISLVR) | % | 25 |

[a] VIYLVR: VIWLVR with Trp at position 3 replaced by Tyr
[b] V I N L V R: VIWLVR with Trp at position 3 replaced by Asn (VINLVR)
[c] VIFLVR
query: # rank_down: sort by Percent Eluted by Fraction, Flowthrough, max first Respond with the label ranking, as requested.
result: b, a, c
(b: 45%, a: 27%, c: 18%)

[A] V I A L V R: VIWLVR with Trp at position 3 replaced by Ala (VIALVR)
[B] VIWLVR
query: Higher Percent Eluted by Fraction, Flowthrough: A or B ? Answer with the label corresponding to your selection.
result: B

###

target: A1PI (Homo sapiens, UniProt P01009); construct: Human plasma is currently the only approved source of therapeutic AlPI; experiment: A1PI yield from dialyzed (aqueous) Effluent II+III; type: binding; conditions: 1 ml dialyzed Eff. II+III (ethanol removed), 4° C.
Ends that are not written are not given here.
parameterMeasured: Mass A1PI per Eluate Fraction, Flowthrough (mg)

Known Mass A1PI per Eluate Fraction, Flowthrough results, listed for orientation:
| substance | obsValue |
| --- | --- |
| RYRIFI | 0.21 |
| IIWLYK | 0.19 |
| ARWYIH | 0.24 |
| VIWLVR | 0.24 |

[A] VIFLVR
[B] VIYLVR: VIWLVR with Trp at position 3 replaced by Tyr
query: Higher Mass A1PI per Eluate Fraction, Flowthrough: A or B ? Answer with the label corresponding to your selection.
result: B

###

target: A1PI (Homo sapiens); construct: Human plasma is currently the only approved source of therapeutic AlPI; assay: A1PI binding on peptide-resin column, injection of 1 mg A1PI in equilibration buffer; conditions: Trp position mutations; 1 mg A1PI, 4° C.
Ends that are not written are not given here.
parameterMeasured: % of Total A1PI Eluted by Fraction (Based on Absorbance at 280 nm), 2% Acetic Acid (%)

| substance | tgt | obsValue |
| --- | --- | --- |
| VIYLVR: VIWLVR with Trp at position 3 replaced by Tyr | A1PI (Homo sapiens) | 72 |
| V I A L V R: VIWLVR with Trp at position 3 replaced by Ala (VIALVR) | A1PI (Homo sapiens) | 8 |
| VIFLVR | A1PI (Homo sapiens) | 97 |
| V I N L V R: VIWLVR with Trp at position 3 replaced by Asn (VINLVR) | A1PI (Homo sapiens) | 92 |
| V I V L V R: VIWLVR with Trp at position 3 replaced by Val (VIVLVR) | A1PI (Homo sapiens) | 95 |
| V I D L V R: VIWLVR with Trp at position 3 replaced by Asp (VIDLVR) | A1PI (Homo sapiens) | 0 |

[A] V I L L V R: VIWLVR with Trp at position 3 replaced by Leu (VILLVR)
[B] VIWLVR
[C] V I S L V R: VIWLVR with Trp at position 3 replaced by Ser (VISLVR)
[D] V I R L V R: VIWLVR with Trp at position 3 replaced by Arg (VIRLVR)
query: Let's sort these by % of Total A1PI Eluted by Fraction (Based on Absorbance at 280 nm), 2% Acetic Acid, smallest first. Go ahead? Respond with the label ranking, as requested.
result: C, D, B, A
(C: 0%, D: 10%, B: 30%, A: 93%)
